Reported protein stability index values follow for various sequences
# System: Saccharomyces cerevisiae
# protocol: protein stability index of tFT-peptide fusion (C-terminal peptide) (PSI (0-1 scale)); higher = more stable (slower turnover);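 note: PSI is a weighted mean of sequencing reads over stability bins, variants kept only with over 10 reads, mCherry proximal and sfGFP distal, peptide attached via GGGS linker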
# assay conditions: genetic background: wild type; temperature: 30 C
Answer with a bare number; do not write a unit.

Sample answers from the record:
[
  {
    "sequence input": "NYFRPWLIFHKC",
    "observed value": 0.38
  },
  {
    "sequence input": "EDCICPLNWFTA",
    "observed value": 0.711
  },
  {
    "sequence input": "AKKKEIQSTKHK",
    "observed value": 0.705
  },
  {
    "sequence input": "SRVCVLTGISCA",
    "observed value": 0.473
  },
  {
    "sequence input": "QRRARVSDISVY",
    "observed value": 0.634
  },
  {
    "sequence input": "VSVFRFALGLQV",
    "observed value": 0.563
  }
]

Task: protein stability index for `SICSIRPFSDLP` ?
Output: 0.683

Task: Give the measured protein stability index of `KERKEKKKKKNK` .
Output: 0.723

Task: For the sequence `GFRDGVASLFVR` , what protein stability index is on record?
Output: 0.757

----------
# System: Saccharomyces cerevisiae
# protocol: protein stability index of tFT-peptide fusion (C-terminal peptide) (PSI (0-1 scale)); higher = more stable (slower turnover)
# assay conditions: genetic background: wild type; temperature: 37 C
parameter measured: protein stability index
Just the number, please, no unit attached.

Some entries whose results are on file:
[
  {
    "sequence input": "DPTLLLYPLSPL",
    "protein stability index": 0.72
  },
  {
    "sequence input": "FVVLVFMLGSVC",
    "protein stability index": 0.426
  },
  {
    "sequence input": "LSVYGFYKMPAG",
    "protein stability index": 0.537
  },
  {
    "sequence input": "GVSLQLHVAVLI",
    "protein stability index": 0.428
  },
  {
    "sequence input": "SRPLYVMICTRV",
    "protein stability index": 0.503
  },
  {
    "sequence input": "GGTFWDGLVLVH",
    "protein stability index": 0.455
  },
  {
    "sequence input": "PPVPRLLPVLAP",
    "protein stability index": 0.506
  },
  {
    "sequence input": "FFMLWCRVLLRL",
    "protein stability index": 0.167
  },
  {
    "sequence input": "TLPIWLRVLIFG",
    "protein stability index": 0.426
  },
  {
    "sequence input": "MRLQLTFSILLF",
    "protein stability index": 0.36
  }
]

Task: Tell me the measured protein stability index of `ARKIGKVIPKLG` , please.
Output: 0.599

Task: Given the sequence `VGGLGWCWVCMA` , what is its reported protein stability index?
Output: 0.246

----------
# Tested on: Saccharomyces cerevisiae
# protocol: protein stability index of tFT-peptide fusion (C-terminal peptide) (PSI (0-1 scale)); higher = more stable (slower turnover)
# assay conditions: genetic background: wild type; temperature: 30 C
protein stability index below 0.7 gives f; protein stability index at or above it gives t.

[
  {
    "sequence input": "QDTRRRAPYPPS",
    "category": "f"
  },
  {
    "sequence input": "EISPQGAKWQEG",
    "category": "f"
  }
]

Task: Hi, just wondering whether `CMRVHPGHPFPY` shows protein stability index of 0.7 or higher.
Output: f

Task: API: above_or_equal(metric=protein stability index, cutoff=0.7) for item `LFNRCCTILVVW`
Output: f

Task: Kindly determine if protein stability index recorded for `VWHWGRSLYLAA` is above or exactly 0.7.
Output: f
